pKi: −log10 of the molar value.
Below are pKi values measured for human 5-HT2A receptor (Homo sapiens (Human), UniProt P28223).

record-smiles: Cc1ccc(C(=O)N[C@H]2CC[C@H](CCN3CCC(c4cccc5c4CCO5)CC3)CC2)cn1
pKi: 7.60
//
record-smiles: O=C(N[C@H]1CC[C@H](CCN2CCC(c3cccc4c3CCO4)CC2)CC1)c1ccc(-n2cccn2)cc1
pKi: 7.56
//
record-smiles: O=C(CC(F)(F)F)N[C@H]1CC[C@H](CCN2CCC(c3cccc4c3CCO4)CC2)CC1
pKi: 7.47
//
record-smiles: CC(C)(O)C(=O)N[C@H]1CC[C@H](CCN2CCC(c3cccc4c3CCO4)CC2)CC1
pKi: 8.10
//
record-smiles: Cc1nc(-c2ccc(C(=O)N[C@H]3CC[C@H](CCN4CCC(c5cccc6c5CCO6)CC4)CC3)cc2)no1
pKi: 7.26
//
record-smiles: O=C(N[C@H]1CC[C@H](CCN2CCC(c3cccc4c3CCO4)CC2)CC1)c1ccc(-c2cccnc2)cc1
pKi: 7.60
//
record-smiles: CC(C)C(=O)N[C@H]1CC[C@H](CCN2CCC(c3cccc4c3CCO4)CC2)CC1
pKi: 7.70
//
record-smiles: O=C(Cc1noc2ccccc12)N[C@H]1CC[C@H](CCN2CCC(c3cccc4c3CCO4)CC2)CC1
pKi: 7.51
//
record-smiles: CN(C)S(=O)(=O)N[C@H]1CC[C@H](CCN2CCC(c3cccc4c3CCO4)CC2)CC1
pKi: 7.71
//
record-smiles: O=C(N[C@H]1CC[C@H](CCN2CCC(c3ccc(F)c4occc34)CC2)CC1)C1CCOCC1
pKi: 7.94
//
record-smiles: CC(C)(C)C(=O)N[C@H]1CC[C@H](CCN2CCC(c3cccc4c3CCO4)CC2)CC1
pKi: 7.30
//
record-smiles: O=C(CC1CCC1)N[C@H]1CC[C@H](CCN2CCC(c3cccc4c3CCO4)CC2)CC1
pKi: 7.35
//
record-smiles: CC(=O)N[C@H]1CC[C@H](CCN2CCC(c3cccc4occc34)CC2)CC1
pKi: 8.17
//
record-smiles: CC(C)CC(=O)N[C@H]1CC[C@H](CCN2CCC(c3cccc4c3CCO4)CC2)CC1
pKi: 7.51
//
record-smiles: O=C(Cc1ccc2c(c1)OCO2)N[C@H]1CC[C@H](CCN2CCC(c3cccc4c3CCO4)CC2)CC1
pKi: 7.34
//
record-smiles: O=S(=O)(N[C@H]1CC[C@H](CCN2CCC(c3cccc4c3CCO4)CC2)CC1)c1ccccc1
pKi: 7.10

###

Below: a set of entries, each annotated with reported melting point.
metric-name: melting point (°C)

compound: C/C=C/CC(=O)N[C@H]1CC[C@H](CCN2CCC(c3cccc4c3CCO4)CC2)CC1 [Example 85]
metric-name: melting point
u: °C
recorded-number: 196

compound: CC(C)=CC(=O)N[C@H]1CC[C@H](CCN2CCC(c3cccc4c3CCO4)CC2)CC1 [Example 84]
metric-name: melting point
u: °C
recorded-number: 177

compound: O=C(N[C@H]1CC[C@H](CCN2CCC(c3cccc4c3CCO4)CC2)CC1)c1ccc(Cl)cc1 [Example 34]
metric-name: melting point
u: °C
recorded-number: 224

compound: O=C(N[C@H]1CC[C@H](CCN2CCC(c3cccc4c3CCO4)CC2)CC1)C1CC1(F)F (stereo partly shown) [Example 61]
metric-name: melting point
u: °C
recorded-number: 199

compound: O=C(CC1COCCO1)N[C@H]1CC[C@H](CCN2CCC(c3cccc4c3CCO4)CC2)CC1 (mixture of isomers) [Example 16]
metric-name: melting point
u: °C
recorded-number: 192

compound: O=C(N[C@H]1CC[C@H](CCN2CCC(c3cccc4c3CCO4)CC2)CC1)C1(O)CC1 [Example 28]
metric-name: melting point
u: °C
recorded-number: 164

compound: O=S(=O)(N[C@H]1CC[C@H](CCN2CCC(c3cccc4c3CCO4)CC2)CC1)c1ccccc1 [Example 49]
metric-name: melting point
u: °C
recorded-number: 130

compound: O=C(C[C@@H](O)C(F)(F)F)N[C@H]1CC[C@H](CCN2CCC(c3cccc4c3CCO4)CC2)CC1 [Example 36]
metric-name: melting point
u: °C
recorded-number: 189

compound: O=C(CO)N[C@H]1CC[C@H](CCN2CCC(c3cccc4c3CCO4)CC2)CC1 [Example 20]
metric-name: melting point
u: °C
recorded-number: 154.5

compound: Cc1nc(-c2ccc(C(=O)N[C@H]3CC[C@H](CCN4CCC(c5cccc6c5CCO6)CC4)CC3)cc2)no1 [Example 69]
metric-name: melting point
u: °C
recorded-number: 256.5

compound: CC[C@@H](O)CC(=O)N[C@H]1CC[C@H](CCN2CCC(c3cccc4c3CCO4)CC2)CC1 [Example 81]
metric-name: melting point
u: °C
recorded-number: 201

compound: O=C(CCC(F)(F)F)N[C@H]1CC[C@H](CCN2CCC(c3cccc4c3CCO4)CC2)CC1 [Example 74]
metric-name: melting point
u: °C
recorded-number: 200

compound: CCS(=O)(=O)N[C@H]1CC[C@H](CCN2CCC(c3cccc4c3CCO4)CC2)CC1 [Example 48]
metric-name: melting point
u: °C
recorded-number: 131

###

- system-name: human 5-HT2A receptor (Homo sapiens (Human), UniProt P28223)
- Sequence (P28223 whole entry): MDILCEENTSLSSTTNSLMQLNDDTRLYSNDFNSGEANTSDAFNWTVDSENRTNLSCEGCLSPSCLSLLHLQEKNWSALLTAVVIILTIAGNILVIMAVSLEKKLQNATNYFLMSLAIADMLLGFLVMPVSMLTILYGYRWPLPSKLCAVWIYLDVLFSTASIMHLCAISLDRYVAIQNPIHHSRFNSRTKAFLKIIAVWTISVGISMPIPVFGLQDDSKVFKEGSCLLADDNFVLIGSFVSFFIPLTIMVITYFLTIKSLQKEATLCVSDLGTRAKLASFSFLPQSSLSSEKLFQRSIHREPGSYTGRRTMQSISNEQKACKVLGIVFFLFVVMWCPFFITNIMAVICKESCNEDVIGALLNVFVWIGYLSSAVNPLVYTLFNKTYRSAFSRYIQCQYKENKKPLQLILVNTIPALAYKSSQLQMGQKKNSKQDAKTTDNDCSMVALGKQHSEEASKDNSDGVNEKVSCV
pKi: −log10 of the molar value.

record-smiles: O=C(CC1CCOCC1)N[C@H]1CC[C@H](CCN2CCC(c3cccc4occc34)CC2)CC1
pKi: 8.05
//
record-smiles: O=C(N[C@H]1CC[C@H](CCN2CCC(c3cccc4occc34)CC2)CC1)C1CCOCC1
pKi: 8.66
//
record-smiles: O=C(N[C@H]1CC[C@H](CCN2CCC(c3cccc4c3CCO4)CC2)CC1)c1ccccc1
pKi: 7.94

###

- system-name: human D3 receptor (Homo sapiens (Human))
- Sequence (P35462 whole entry): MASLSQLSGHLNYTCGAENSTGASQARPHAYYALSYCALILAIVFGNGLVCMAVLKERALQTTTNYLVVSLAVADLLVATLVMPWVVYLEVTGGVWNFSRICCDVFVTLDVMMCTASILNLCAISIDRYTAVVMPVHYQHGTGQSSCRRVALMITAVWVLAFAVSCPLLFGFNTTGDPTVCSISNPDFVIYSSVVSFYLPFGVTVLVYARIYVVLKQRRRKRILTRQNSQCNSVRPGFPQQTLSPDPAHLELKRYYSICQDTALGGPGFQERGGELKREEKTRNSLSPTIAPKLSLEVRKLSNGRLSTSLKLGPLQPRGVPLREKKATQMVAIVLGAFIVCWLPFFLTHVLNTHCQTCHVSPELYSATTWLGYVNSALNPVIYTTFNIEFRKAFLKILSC
Reported Ki values for a set of compounds

record-smiles: COCCC(=O)N[C@H]1CC[C@H](CCN2CCC(c3ccc(F)c4occc34)CC2)CC1
u: nM
Ki: 9.28
//
record-smiles: O=C(N[C@H]1CC[C@H](CCN2CCC(c3cccc4c3CCO4)CC2)CC1)c1ccc(-n2cccn2)cc1
u: nM
Ki: 8.65
//
record-smiles: CN(C)S(=O)(=O)N[C@H]1CC[C@H](CCN2CCC(c3cccc4c3CCO4)CC2)CC1
u: nM
Ki: 9.9
//
record-smiles: Cc1ccc(C(=O)N[C@H]2CC[C@H](CCN3CCC(c4cccc5c4CCO5)CC3)CC2)cn1
u: nM
Ki: 10.2

###

- system-name: human D3 receptor (Homo sapiens (Human))
pKi: −log10 of the molar value.
Binary classification by pKi, with 8 as an inclusive lower bound for Satisfied; all other cases are Not satisfied.

molecule: CC(C)(O)C(=O)N[C@H]1CC[C@H](CCN2CCC(c3cccc4c3CCO4)CC2)CC1 [Example 38]
system-name: human D3 receptor (Homo sapiens (Human))
class-label: Not satisfied
--
molecule: COC(CC(=O)N[C@H]1CC[C@H](CCN2CCC(c3cccc4c3CCO4)CC2)CC1)OC [Example 82]
system-name: human D3 receptor (Homo sapiens (Human))
class-label: Satisfied
--
molecule: CC(=O)N[C@H]1CC[C@H](CCN2CCC(c3cccc4occc34)CC2)CC1 [Example 1]
system-name: human D3 receptor (Homo sapiens (Human))
class-label: Satisfied
--
molecule: CCCC(=O)N[C@H]1CC[C@H](CCN2CCC(c3cccc4c3CCO4)CC2)CC1 [Example 73]
system-name: human D3 receptor (Homo sapiens (Human))
class-label: Satisfied

###

// UniProtKB P35462 Ki records

record-smiles: O=C(CCC(F)(F)F)N[C@H]1CC[C@H](CCN2CCC(c3cccc4c3CCO4)CC2)CC1
u: nM
Ki: 7.64
//
record-smiles: N#Cc1ccc(C(=O)N[C@H]2CC[C@H](CCN3CCC(c4cccc5c4CCO5)CC3)CC2)cc1
u: nM
Ki: 7.9
//
record-smiles: O=C(N[C@H]1CC[C@H](CCN2CCC(c3cccc4c3CCO4)CC2)CC1)C1CCC1
u: nM
Ki: 8.4
//
record-smiles: CC(C)(C)CC(=O)N[C@H]1CC[C@H](CCN2CCC(c3cccc4c3CCO4)CC2)CC1
u: nM
Ki: 6
//
record-smiles: CC(C)=CC(=O)N[C@H]1CC[C@H](CCN2CCC(c3cccc4c3CCO4)CC2)CC1
u: nM
Ki: 6.36
//
record-smiles: O=C(N[C@H]1CC[C@H](CCN2CCC(c3cccc4c3CCO4)CC2)CC1)c1ccc(N2CCOCC2)nc1
u: nM
Ki: 16.3
//
record-smiles: N#CCC(=O)N[C@H]1CC[C@H](CCN2CCC(c3cccc4c3CCO4)CC2)CC1
u: nM
Ki: 3.6
//
record-smiles: CCC(=O)N[C@H]1CC[C@H](CCN2CCC(c3cccc4occc34)CC2)CC1
u: nM
Ki: 2.2
//
record-smiles: O=C(N[C@H]1CC[C@H](CCN2CCC(c3cccc4c3CCO4)CC2)CC1)c1ccccc1
u: nM
Ki: 4.2
//
record-smiles: O=S(=O)(N[C@H]1CC[C@H](CCN2CCC(c3cccc4c3CCO4)CC2)CC1)c1ccc(F)cc1
u: nM
Ki: 4.1
//
record-smiles: CC(=O)N[C@H]1CC[C@H](CCN2CCC(c3ccc(F)c4occc34)CC2)CC1
u: nM
Ki: 9.72
//
record-smiles: O=C(CC1CCC1)N[C@H]1CC[C@H](CCN2CCC(c3cccc4c3CCO4)CC2)CC1
u: nM
Ki: 6.1
//
record-smiles: O=C(CC1CCOCC1)N[C@H]1CC[C@H](CCN2CCC(c3cccc4occc34)CC2)CC1
u: nM
Ki: 5.7
//
record-smiles: O=C(N[C@H]1CC[C@H](CCN2CCC(c3cccc4c3CCO4)CC2)CC1)C1(O)CC1
u: nM
Ki: 8.4
//
record-smiles: O=C(N[C@H]1CC[C@H](CCN2CCC(c3cccc4c3CCO4)CC2)CC1)c1ccc(N2CCOCC2)cc1
u: nM
Ki: 10.5

Values compiled from patent US8877778B2.
